Tested on: HEK-293T
Assay: Multiplex assay against HEK293T
Type: toxicity, cell-based
Settings: human, 48 h, 10 µM, compound concentration 10 uM, number of replicates 2
Listed below: Population Membrane Permeable-Phenotype (%) values for each entry.
Return type: number; implicit unit %.

Solved entries:
>  <Compound>
Cc1onc(-c2ccccc2Cl)c1C(=O)N(C)c1ccc(Cl)cc1

>  <Unit spec>
%

>  <Recorded value>
6

$$$$
>  <Compound>
CC(C)S(=O)(=O)c1ccccc1Nc1nc(N[C@@H]2CCCN(CCCCCCCNC(=O)COc3cccc4c3C(=O)N(C3CCC(=O)N(C)C3=O)C4=O)C2)ncc1Cl (stereo partly drawn)

>  <Unit spec>
%

>  <Recorded value>
0

$$$$
>  <Compound>
CN(C)[C@H]1CC[C@H](Nc2ncc3ncnc(Nc4ccc(F)c(Cl)c4)c3n2)CC1

>  <Unit spec>
%

>  <Recorded value>
3

$$$$
>  <Compound>
Cc1cccc(S(=O)(=O)N(C)[C@H](C)CCN2CCC(C)CC2)c1.Cl

>  <Unit spec>
%

>  <Recorded value>
7

$$$$
>  <Compound>
CN1CCN(c2ccc(-n3cc(-c4ccncc4OCC4CCNCC4)cn3)cc2)CC1

>  <Unit spec>
%

>  <Recorded value>
4

$$$$
>  <Compound>
COc1cc(Nc2cnc(C#N)c(O[C@H](C)CN(C)C)n2)ncc1-c1cnn(C)c1

>  <Unit spec>
%

>  <Recorded value>
4

$$$$
>  <Compound>
CC1(C)C(=O)N([C@H]2CCc3c(O)cccc32)c2nc(Nc3cccc(CN4CCCC4)c3)ncc21

>  <Unit spec>
%

>  <Recorded value>
0

$$$$

// query Identify the measured Population Membrane Permeable-Phenotype (%) of "CN1CCc2cc(Cl)c(O)cc2[C@@H](c2ccccc2)C1.Cl" for HEK-293T.
// result 10
